Give pEC50 for every item shown.
TARGET: Ba/F3 cells WT EGFR (Homo sapiens, UniProt P00533)
Sequence (P00533 whole entry, change not shown): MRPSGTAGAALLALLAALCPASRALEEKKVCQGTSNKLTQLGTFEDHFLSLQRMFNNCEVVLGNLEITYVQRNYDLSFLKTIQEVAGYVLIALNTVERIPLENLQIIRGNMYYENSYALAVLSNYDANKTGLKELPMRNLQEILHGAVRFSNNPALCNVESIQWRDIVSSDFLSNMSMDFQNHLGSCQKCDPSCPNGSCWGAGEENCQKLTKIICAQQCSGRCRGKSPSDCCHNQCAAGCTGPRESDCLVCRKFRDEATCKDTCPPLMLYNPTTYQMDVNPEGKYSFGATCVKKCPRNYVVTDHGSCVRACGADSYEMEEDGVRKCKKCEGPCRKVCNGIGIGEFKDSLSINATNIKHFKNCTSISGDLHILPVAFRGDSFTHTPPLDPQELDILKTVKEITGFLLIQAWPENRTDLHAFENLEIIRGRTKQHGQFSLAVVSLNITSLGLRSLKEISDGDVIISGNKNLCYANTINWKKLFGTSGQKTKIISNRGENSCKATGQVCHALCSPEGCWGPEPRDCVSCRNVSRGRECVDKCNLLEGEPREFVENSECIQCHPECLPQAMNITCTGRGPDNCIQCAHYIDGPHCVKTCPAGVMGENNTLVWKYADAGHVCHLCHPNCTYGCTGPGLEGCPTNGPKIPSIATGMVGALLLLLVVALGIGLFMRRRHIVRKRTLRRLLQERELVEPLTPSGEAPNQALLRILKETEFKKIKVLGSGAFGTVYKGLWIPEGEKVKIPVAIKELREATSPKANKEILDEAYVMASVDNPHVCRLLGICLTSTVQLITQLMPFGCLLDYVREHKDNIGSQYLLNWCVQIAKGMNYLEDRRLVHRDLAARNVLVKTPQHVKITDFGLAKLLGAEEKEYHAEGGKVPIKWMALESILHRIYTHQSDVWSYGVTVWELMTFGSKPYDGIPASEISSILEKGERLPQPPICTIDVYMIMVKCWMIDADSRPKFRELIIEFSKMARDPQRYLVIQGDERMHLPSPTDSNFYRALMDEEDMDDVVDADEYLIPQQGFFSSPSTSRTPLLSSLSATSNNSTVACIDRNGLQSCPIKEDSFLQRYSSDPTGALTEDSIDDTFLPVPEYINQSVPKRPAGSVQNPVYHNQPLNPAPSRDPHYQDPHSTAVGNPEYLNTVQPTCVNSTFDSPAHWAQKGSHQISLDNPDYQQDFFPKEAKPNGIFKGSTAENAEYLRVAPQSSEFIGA
EXPERIMENTAL DETAILS: Antiproliferative activities (MTS assay), Ba/F3 cells WT EGFR
ASSAY SETUP: 72 hours
Experimental: Cell growth and growth inhibition were evaluated by […] (MTS) assay. A total of 3,000-4,000 cells were plated per well in 96-well plates and treated with each drug (at a dose range from 1 nM to 10 μM) for 3 days. Each experimental point was conducted in six replicates and all tests were repeated more than three times. […] Cell growth inhibition was assessed by MTS assay for Ba/F3 and H1781 cells. […]
pEC50: −log10 of the molar value.

Task: Please give the measured pEC50 for this molecule: CCOc1cc2ncc(C#N)c(Nc3ccc(Oc4ccn5ncnc5c4)c(F)c3)c2cc1NC(=O)/C=C/CN(C)C [Compound 2]
Result: < 6.30

Task: Please give the measured pEC50 for this molecule: CCOc1cc2ncc(C#N)c(Nc3ccc(Oc4ccn5ncnc5c4)c(Cl)c3)c2cc1NC(=O)/C=C/CN(C)C [Compound 3]
Result: 6.30 to 6.60

Task: Please give the measured pEC50 for this molecule: Cc1cc(Nc2ncnc3ccc(NC4=NC(C)(C)CO4)cc23)ccc1Oc1ccn2ncnc2c1 [Irbinitinib, reference compound]
Result: < 6.30

---

Test system: Calu-3 (Her2 amplification)
EXPERIMENTAL DETAILS: Antiproliferative activities in lung cancer cells, Calu-3
Format: cell-based
ASSAY SETUP: Homo sapiens
Give EC50 for every item shown.

Task: Please give the measured EC50 for this compound: Cc1cc(Nc2ncnc3ccc(NC4=NC(C)(C)CO4)cc23)ccc1Oc1ccn2ncnc2c1 [Irbinitinib, reference compound]
Result: ≥ 500 nM

Task: Please give the measured EC50 for this compound: `CCOc1cc2ncc(C#N)c(Nc3ccc(Oc4ccn5ncnc5c4)c(C)c3)c2cc1NC(=O)/C=C/CN(C)C`
Result: < 100 nM

Task: Please give the measured EC50 for this compound: `CN(C)C/C=C/C(=O)Nc1cc2c(Nc3ccc(F)c(Cl)c3)ncnc2cc1O[C@H]1CCOC1`
Result: 100 to 250 nM

---

TARGET: Ba/F3 cells WT EGFR (Homo sapiens)
EXPERIMENTAL DETAILS: Antiproliferative activities (MTS assay), Ba/F3 cells WT EGFR
ASSAY SETUP: 72 hours
pEC50: −log10 of the molar value.
EXPERIMENTAL ENDPOINT: pEC50

Task: Please give the measured pEC50 for this compound: `CCOc1cc2ncc(C#N)c(Nc3ccc(Oc4ccc5ccn(C)c5c4)c(C)c3)c2cc1NC(=O)/C=C/CN(C)C`
Result: < 6.30

Task: Please give the measured pEC50 for this compound: `CCOc1cc2ncc(C#N)c(Nc3ccc(Oc4ccn5ncnc5c4)c(C)c3)c2cc1NC(=O)/C=C/CN(C)C`
Result: 6.30 to 6.60

Task: Please give the measured pEC50 for this compound: `CCOc1cc2ncc(C#N)c(Nc3ccc(Oc4ccn5nccc5c4)c(C)c3)c2cc1NC(=O)/C=C/CN(C)C`
Result: 6.60 to 7.00

Task: Please give the measured pEC50 for this compound: `CCOc1cc2ncc(C#N)c(Nc3ccc(Oc4ccn5ccnc5c4)c(C)c3)c2cc1NC(=O)/C=C/CN(C)C`
Result: < 6.30

---

TARGET: Ba/F3 cells HER2 InsVC (Homo sapiens, UniProt P04626, DELINS776-776VC, cells depend on it)
Sequence (P04626 with tags, fused parts or gaps DELINS776-776VC): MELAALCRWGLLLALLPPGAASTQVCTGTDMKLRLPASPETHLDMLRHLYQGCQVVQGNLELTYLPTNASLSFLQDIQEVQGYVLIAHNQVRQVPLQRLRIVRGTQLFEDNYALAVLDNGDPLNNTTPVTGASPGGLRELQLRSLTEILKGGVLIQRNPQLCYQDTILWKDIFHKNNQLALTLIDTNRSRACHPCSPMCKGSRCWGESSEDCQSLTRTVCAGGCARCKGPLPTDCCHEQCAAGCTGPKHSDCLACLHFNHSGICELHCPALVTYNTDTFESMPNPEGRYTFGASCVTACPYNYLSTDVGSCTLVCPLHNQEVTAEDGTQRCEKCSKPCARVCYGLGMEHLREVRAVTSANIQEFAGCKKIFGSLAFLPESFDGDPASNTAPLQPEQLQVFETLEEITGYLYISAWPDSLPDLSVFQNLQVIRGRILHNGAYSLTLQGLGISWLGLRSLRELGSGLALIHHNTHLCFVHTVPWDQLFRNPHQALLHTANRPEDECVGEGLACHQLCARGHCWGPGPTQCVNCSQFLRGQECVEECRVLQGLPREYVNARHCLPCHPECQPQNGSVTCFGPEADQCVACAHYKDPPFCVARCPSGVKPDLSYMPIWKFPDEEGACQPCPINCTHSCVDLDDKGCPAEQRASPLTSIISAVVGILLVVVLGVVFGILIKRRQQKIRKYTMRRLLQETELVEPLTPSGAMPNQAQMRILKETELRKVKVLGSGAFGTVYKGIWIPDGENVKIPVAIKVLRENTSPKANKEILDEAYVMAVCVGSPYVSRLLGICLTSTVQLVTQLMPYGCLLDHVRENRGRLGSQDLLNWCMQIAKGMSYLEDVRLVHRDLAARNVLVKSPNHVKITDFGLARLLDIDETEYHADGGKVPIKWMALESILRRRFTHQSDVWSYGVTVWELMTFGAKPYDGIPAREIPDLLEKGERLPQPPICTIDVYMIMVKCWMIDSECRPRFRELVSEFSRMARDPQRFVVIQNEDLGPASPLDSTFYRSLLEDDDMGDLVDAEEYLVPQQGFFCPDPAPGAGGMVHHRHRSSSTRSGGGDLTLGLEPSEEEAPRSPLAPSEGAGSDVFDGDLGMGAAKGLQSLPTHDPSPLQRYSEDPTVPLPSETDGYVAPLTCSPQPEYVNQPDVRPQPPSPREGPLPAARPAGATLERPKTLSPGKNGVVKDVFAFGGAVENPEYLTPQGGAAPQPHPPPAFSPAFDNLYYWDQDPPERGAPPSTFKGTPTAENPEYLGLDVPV
EXPERIMENTAL DETAILS: Antiproliferative activities (MTS assay), Ba/F3 cells HER2 InsVC
Assay type: cell-based
ASSAY SETUP: 72 hours
Give EC50 for every item shown.

Task: Please give the measured EC50 for this compound: `CCOc1cc2ncc(C#N)c(Nc3ccc(Oc4ccc5ccn(C)c5c4)c(C)c3)c2cc1NC(=O)/C=C/CN(C)C`
Result: < 100 nM

Task: Please give the measured EC50 for this compound: `CCOc1cc2ncc(C#N)c(Nc3ccc(Oc4ccn5ncnc5c4)c(F)c3)c2cc1NC(=O)/C=C/CN(C)C`
Result: 250 to 500 nM

Task: Please give the measured EC50 for this compound: `CCOc1cc2ncc(C#N)c(Nc3ccc(Oc4ccn5ccnc5c4)c(C)c3)c2cc1NC(=O)/C=C/CN(C)C`
Result: < 100 nM

Task: Please give the measured EC50 for this compound: Cc1cc(Nc2ncnc3ccc(NC4=NC(C)(C)CO4)cc23)ccc1Oc1ccn2ncnc2c1 [Irbinitinib, reference compound]
Result: > 500 nM

Task: Please give the measured EC50 for this compound: `CCOc1cc2ncc(C#N)c(Nc3ccc(Oc4ccn5ncnc5c4)c(C)c3)c2cc1NC(=O)/C=C/CN(C)C`
Result: < 100 nM

Task: Please give the measured EC50 for this compound: `CCOc1cc2ncc(C#N)c(Nc3ccc(Oc4ccn5ncnc5c4)c(Cl)c3)c2cc1NC(=O)/C=C/CN(C)C`
Result: < 100 nM

Task: Please give the measured EC50 for this compound: `CCOc1cc2ncc(C#N)c(Nc3ccc(Oc4ccn5nccc5c4)c(C)c3)c2cc1NC(=O)/C=C/CN(C)C`
Result: < 100 nM

---

Give EC50 for every item shown.
Test system: H1819 (Her2 amplification)
EXPERIMENTAL DETAILS: Antiproliferative activities in lung cancer cells, H1819
Type: cell-based
ASSAY SETUP: NCI-H1819

Task: API: value(readout= EC50, system= H1819 (Her2 amplification), query= `CN(C)C/C=C/C(=O)Nc1cc2c(Nc3ccc(F)c(Cl)c3)ncnc2cc1O[C@H]1CCOC1` )
Result: < 100 nM

Task: API: value(readout= EC50, system= H1819 (Her2 amplification), query= `CCOc1cc2ncc(C#N)c(Nc3ccc(Oc4ccn5ncnc5c4)c(C)c3)c2cc1NC(=O)/C=C/CN(C)C` )
Result: < 100 nM

Task: API: value(readout= EC50, system= H1819 (Her2 amplification), query= Cc1cc(Nc2ncnc3ccc(NC4=NC(C)(C)CO4)cc23)ccc1Oc1ccn2ncnc2c1 [Irbinitinib, reference compound] )
Result: 100 to 250 nM

---

Give pEC50 for every item shown.
TARGET: Ba/F3 cells HER2 InsWLV (Homo sapiens, UniProt P04626, DELINS774-774WLV, cells depend on it)
Sequence (P04626 with tags, fused parts or gaps DELINS774-774WLV): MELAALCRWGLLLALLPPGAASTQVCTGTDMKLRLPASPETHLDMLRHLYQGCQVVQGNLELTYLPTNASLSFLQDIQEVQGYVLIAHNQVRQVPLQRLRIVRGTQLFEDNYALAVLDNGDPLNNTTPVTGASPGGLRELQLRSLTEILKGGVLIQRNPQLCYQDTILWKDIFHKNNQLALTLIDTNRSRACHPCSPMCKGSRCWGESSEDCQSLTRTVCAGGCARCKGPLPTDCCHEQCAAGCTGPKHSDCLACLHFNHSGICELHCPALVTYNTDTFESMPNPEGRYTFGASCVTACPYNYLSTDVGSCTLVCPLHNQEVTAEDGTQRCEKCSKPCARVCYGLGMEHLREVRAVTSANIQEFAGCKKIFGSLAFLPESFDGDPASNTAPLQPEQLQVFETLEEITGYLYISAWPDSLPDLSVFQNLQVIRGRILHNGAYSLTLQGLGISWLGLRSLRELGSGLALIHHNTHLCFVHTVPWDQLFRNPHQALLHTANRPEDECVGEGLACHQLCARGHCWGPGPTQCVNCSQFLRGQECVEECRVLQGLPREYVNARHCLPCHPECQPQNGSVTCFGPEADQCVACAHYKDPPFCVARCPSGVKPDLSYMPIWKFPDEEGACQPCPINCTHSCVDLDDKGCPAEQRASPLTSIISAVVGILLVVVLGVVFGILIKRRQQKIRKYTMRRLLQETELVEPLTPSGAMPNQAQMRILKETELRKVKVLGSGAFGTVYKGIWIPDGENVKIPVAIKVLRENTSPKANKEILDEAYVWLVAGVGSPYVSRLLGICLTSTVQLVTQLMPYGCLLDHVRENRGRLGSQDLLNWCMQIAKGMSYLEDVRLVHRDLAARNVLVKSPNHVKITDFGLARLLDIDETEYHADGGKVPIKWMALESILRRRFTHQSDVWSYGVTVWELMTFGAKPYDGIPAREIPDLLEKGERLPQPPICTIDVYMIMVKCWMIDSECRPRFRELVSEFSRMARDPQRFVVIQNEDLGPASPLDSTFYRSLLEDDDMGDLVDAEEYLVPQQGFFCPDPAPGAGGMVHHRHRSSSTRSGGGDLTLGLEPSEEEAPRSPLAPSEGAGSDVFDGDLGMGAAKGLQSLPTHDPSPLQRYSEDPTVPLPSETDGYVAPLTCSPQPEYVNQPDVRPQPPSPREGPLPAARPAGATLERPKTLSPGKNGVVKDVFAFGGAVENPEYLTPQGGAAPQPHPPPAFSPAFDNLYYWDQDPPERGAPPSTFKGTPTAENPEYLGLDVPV
EXPERIMENTAL DETAILS: Antiproliferative activities (MTS assay), Ba/F3 cells HER2 InsWLV
ASSAY SETUP: 72 hours
pEC50: −log10 of the molar value.

Task: Please give the measured pEC50 for this compound: `CCOc1cc2ncc(C#N)c(Nc3ccc(Oc4ccn5ccnc5c4)c(C)c3)c2cc1NC(=O)/C=C/CN(C)C`
Result: 6.60 to 7.00

Task: Please give the measured pEC50 for this compound: `CCOc1cc2ncc(C#N)c(Nc3ccc(Oc4ccc5ccn(C)c5c4)c(C)c3)c2cc1NC(=O)/C=C/CN(C)C`
Result: 6.60 to 7.00

Task: Please give the measured pEC50 for this compound: Cc1cc(Nc2ncnc3ccc(NC4=NC(C)(C)CO4)cc23)ccc1Oc1ccn2ncnc2c1 [Irbinitinib, reference compound]
Result: 6.30 to 6.60

Task: Please give the measured pEC50 for this compound: `CCOc1cc2ncc(C#N)c(Nc3ccc(Oc4ccn5ncnc5c4)c(Cl)c3)c2cc1NC(=O)/C=C/CN(C)C`
Result: > 7.00

Task: Please give the measured pEC50 for this compound: `CCOc1cc2ncc(C#N)c(Nc3ccc(Oc4ccn5ncnc5c4)c(F)c3)c2cc1NC(=O)/C=C/CN(C)C`
Result: 6.60 to 7.00

Task: Please give the measured pEC50 for this compound: `CCOc1cc2ncc(C#N)c(Nc3ccc(Oc4ccn5ncnc5c4)c(C)c3)c2cc1NC(=O)/C=C/CN(C)C`
Result: > 7.00

Task: Please give the measured pEC50 for this compound: `CCOc1cc2ncc(C#N)c(Nc3ccc(Oc4ccn5nccc5c4)c(C)c3)c2cc1NC(=O)/C=C/CN(C)C`
Result: 6.60 to 7.00
